Target: OAT3 (Organic anion transporter 3) (Homo sapiens, UniProt Q8TCC7)
Sequence (Q8TCC7 whole entry): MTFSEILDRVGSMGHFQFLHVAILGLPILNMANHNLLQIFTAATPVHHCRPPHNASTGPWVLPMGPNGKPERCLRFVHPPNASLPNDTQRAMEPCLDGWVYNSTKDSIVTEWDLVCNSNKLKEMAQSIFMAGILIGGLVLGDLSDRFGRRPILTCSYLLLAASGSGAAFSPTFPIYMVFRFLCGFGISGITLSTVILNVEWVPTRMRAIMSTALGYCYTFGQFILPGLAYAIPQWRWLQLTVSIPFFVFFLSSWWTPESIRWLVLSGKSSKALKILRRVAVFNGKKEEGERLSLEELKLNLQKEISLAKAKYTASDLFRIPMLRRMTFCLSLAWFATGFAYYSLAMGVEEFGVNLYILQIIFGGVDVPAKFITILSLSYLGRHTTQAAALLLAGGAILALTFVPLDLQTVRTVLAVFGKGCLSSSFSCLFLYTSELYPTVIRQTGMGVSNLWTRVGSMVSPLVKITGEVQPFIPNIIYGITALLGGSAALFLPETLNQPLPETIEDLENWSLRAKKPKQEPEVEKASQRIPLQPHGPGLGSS
Procedure details: TP_TRANSPORTER: uptake in OAT3-expressing S2 cells
Format: functional, cell-based
Test conditions: mouse, S2 cells that express OAT3
Outcome measure: Km
Give the number first and the unit second.

Given C[C@@H]1Cc2c(Cl)cc(C(=O)N[C@@H](Cc3ccccc3)C(=O)O)c(O)c2C(=O)O1 [3R14S-OCHRATOXIN A] , state its recorded Km. 0.75 µM
